The values you see were collected from patent US20240116985A1.

target: full-length beta-Catenin (Uniprot ID P35222) (Homo sapiens, UniProt P35222); construct: 10 nM full-length beta-Catenin (Uniprot ID P35222); test: Fluorescence polarization IC50 (beta-catenin / 5FAM-TCF4 10-53 competition); assay type: binding; conditions: fluorescence polarization; read-out: beta-Catenin FP IC50
Sequence (P35222 whole entry): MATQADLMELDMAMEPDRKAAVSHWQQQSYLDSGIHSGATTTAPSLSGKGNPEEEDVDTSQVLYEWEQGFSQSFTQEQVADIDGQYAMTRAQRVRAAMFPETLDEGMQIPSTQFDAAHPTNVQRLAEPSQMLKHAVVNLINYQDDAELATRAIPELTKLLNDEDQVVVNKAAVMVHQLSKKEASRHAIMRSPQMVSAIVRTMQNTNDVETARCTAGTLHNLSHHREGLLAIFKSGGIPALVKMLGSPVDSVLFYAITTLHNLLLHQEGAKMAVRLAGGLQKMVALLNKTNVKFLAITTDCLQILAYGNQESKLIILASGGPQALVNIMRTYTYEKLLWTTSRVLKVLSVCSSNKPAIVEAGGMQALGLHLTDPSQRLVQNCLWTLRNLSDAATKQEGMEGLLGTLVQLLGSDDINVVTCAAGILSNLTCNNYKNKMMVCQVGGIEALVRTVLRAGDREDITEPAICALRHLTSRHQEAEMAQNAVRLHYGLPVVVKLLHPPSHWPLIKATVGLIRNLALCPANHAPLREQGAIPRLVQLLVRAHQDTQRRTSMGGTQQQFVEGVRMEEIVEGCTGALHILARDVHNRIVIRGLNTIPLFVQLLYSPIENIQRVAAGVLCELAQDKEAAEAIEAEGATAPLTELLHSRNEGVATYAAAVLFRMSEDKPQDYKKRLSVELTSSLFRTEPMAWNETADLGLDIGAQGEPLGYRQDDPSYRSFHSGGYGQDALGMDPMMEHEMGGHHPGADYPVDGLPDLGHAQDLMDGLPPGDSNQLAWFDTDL
IC50: recorded values
Your answer should be a plain number; it is taken to be in nM.

Worked cases, answers included:
Molecule	Experimental System	IC50 / nM
CC(=O)N1CCC[C@]12CC=CCCCC1(CCCC=CCCCOC(=O)N3CC[C@@](C(=O)N[C@@H](Cc4ccsc4)C(=O)N[C@@H](Cc4csc5ccccc45)C(=O)N[C@@H](CCC(N)=O)C(=O)N4CCC[C@H]4CO)(C3)NC(=O)[C@H](CC(C)C)NC(=O)[C@H](Cc3ccccc3)NC(=O)[C@H](C)NC(=O)[C@H](C)NC(=O)[C@H](CN(CC(=O)O)CC(F)(F)F)NC(=O)[C@H](CC(=O)O)NC1=O)NC(=O)[C@H](CC(C)(C)C)NC(=O)[C@H](CC(=O)O)NC2=O (some centres unmarked)	full-length beta-Catenin (Uniprot ID P35222) (Homo sapiens, UniProt P35222)	18.5
CC(=O)N1CCC[C@]12CC=CCCCC1(CCCC=CCCCOC(=O)N3CC[C@@](C(=O)N[C@@H](Cc4ccccc4Cl)C(=O)N[C@@H](Cc4csc5ccccc45)C(=O)N[C@@H](CO)C(N)=O)(C3)NC(=O)[C@H](C(C)C)NC(=O)[C@H](Cc3ccccc3)NC(=O)[C@H](C)NC(=O)[C@H](C)NC(=O)[C@H](Cc3cccc(C(=O)O)c3)NC(=O)[C@H](CC(=O)O)NC1=O)NC(=O)[C@H](CC(C)(C)C)NC(=O)[C@H](CC(=O)O)NC2=O (some centres unmarked)	full-length beta-Catenin (Uniprot ID P35222) (Homo sapiens, UniProt P35222)	17
CC(=O)N1CCC[C@]12CC=CCCCC1(CCCC=CCCCCCC[C@@](C)(C(=O)N[C@@H](Cc3ccccc3)C(=O)N[C@@H](Cc3csc4ccccc34)C(=O)N[C@@H](CCC(N)=O)C(N)=O)NC(=O)[C@H](CCC(N)=O)NC(=O)[C@H](Cc3ccccc3)NC(=O)[C@H](C)NC(=O)[C@H](C)NC(=O)[C@H](CCC(=O)O)NC(=O)[C@H](CC(=O)O)NC1=O)NC(=O)[C@H](CCC(C)C)NC(=O)[C@H](CC(=O)O)NC2=O (some centres unmarked)	full-length beta-Catenin (Uniprot ID P35222) (Homo sapiens, UniProt P35222)	21
CCCC[C@@H]1NC(=O)[C@H](CC(=O)O)NC(=O)[C@]2(CC=CCCCC3(CCCC=CCCCOC(=O)N4CC[C@@](C(=O)N[C@@H](Cc5ccsc5)C(=O)N[C@@H](Cc5csc6ccccc56)C(=O)N[C@@H](CCC(N)=O)C(N)=O)(C4)NC(=O)[C@H](CC(C)C)NC(=O)[C@H](Cc4ccccc4)NC(=O)[C@H](C)NC(=O)[C@H](C)NC(=O)[C@H](CC(=O)O)NC(=O)[C@H](CC(=O)O)NC3=O)NC1=O)CCCN2C(C)=O (some centres unmarked)	full-length beta-Catenin (Uniprot ID P35222) (Homo sapiens, UniProt P35222)	5

We next turn to a different molecule, shown below.
input: Quick one: IC50 for CC(=O)N1CCC[C@]12CC=CCCCC1(CCCC=CCCCOC(=O)N3CC[C@@](C(=O)N[C@@H](Cc4ccsc4)C(=O)N[C@@H](Cc4csc5ccccc45)C(=O)N[C@H](CO)C(=O)N[C@@H](C)C(N)=O)(C3)NC(=O)[C@@H](CO)NC(=O)[C@H](Cc3ccccc3)NC(=O)[C@H](C)NC(=O)C(C)(C)NC(=O)[C@H](Cc3cccc(C(=O)O)c3)NC(=O)[C@H](CC(=O)O)NC1=O)NC(=O)[C@H](CC(C)(C)C)NC(=O)[C@H](CC(=O)O)NC2=O (some centres unmarked) ?
output: 6
